Biological target: KDR (VEGFR2) (Homo sapiens (Human))
Sequence (P35968 20-1356): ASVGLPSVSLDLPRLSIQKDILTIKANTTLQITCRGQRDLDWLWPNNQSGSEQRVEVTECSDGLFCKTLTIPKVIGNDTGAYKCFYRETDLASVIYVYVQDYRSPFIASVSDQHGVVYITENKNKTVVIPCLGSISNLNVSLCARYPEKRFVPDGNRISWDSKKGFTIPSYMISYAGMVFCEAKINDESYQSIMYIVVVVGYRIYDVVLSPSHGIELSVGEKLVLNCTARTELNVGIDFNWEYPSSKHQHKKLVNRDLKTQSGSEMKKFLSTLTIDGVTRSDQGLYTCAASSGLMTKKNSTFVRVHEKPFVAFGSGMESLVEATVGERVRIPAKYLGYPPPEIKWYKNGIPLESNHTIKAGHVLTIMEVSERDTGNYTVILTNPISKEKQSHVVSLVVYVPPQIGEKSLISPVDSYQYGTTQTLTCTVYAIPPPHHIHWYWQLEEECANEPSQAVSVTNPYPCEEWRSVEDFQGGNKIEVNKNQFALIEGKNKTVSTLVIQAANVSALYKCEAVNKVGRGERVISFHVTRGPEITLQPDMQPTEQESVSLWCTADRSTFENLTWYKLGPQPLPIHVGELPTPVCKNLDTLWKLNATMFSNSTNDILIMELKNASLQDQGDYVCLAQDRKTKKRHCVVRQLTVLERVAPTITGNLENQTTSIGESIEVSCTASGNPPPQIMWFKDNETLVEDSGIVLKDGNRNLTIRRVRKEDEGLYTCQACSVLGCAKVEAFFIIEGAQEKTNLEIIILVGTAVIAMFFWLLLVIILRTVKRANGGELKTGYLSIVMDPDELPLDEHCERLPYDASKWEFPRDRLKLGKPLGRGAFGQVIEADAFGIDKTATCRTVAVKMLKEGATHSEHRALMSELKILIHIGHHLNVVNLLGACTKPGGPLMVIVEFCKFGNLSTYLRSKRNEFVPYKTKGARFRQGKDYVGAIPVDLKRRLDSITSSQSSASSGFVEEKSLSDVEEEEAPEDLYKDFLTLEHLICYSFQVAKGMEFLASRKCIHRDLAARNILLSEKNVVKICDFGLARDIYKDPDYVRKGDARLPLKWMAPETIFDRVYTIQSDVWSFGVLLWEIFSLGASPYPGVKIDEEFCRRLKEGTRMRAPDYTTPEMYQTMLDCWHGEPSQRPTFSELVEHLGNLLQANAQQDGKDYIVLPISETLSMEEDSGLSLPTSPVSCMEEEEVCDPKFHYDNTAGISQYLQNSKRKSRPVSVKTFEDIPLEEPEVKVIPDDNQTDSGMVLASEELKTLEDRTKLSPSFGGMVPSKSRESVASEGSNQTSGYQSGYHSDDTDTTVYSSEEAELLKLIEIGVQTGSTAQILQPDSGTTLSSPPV
Assay: Z′-LYTE kinase inhibition assay (Invitrogen), KDR
Assay type: biochemical
Settings: 1 μM compound, Z′-LYTE method; read-out: % inhibition at 1 μM against KDR
test.readout: inhibition at 1 µM

Examples with their reported inhibition at 1 µM follow.
smiles.repr | measured.result
O=C(Nc1ccc(F)c(C(=O)c2ccc3ncc(N4CCOCC4)nc3c2)c1)c1cccc(C(F)(F)F)c1 | > 89%
O=C(Nc1cc(F)cc(F)c1)Nc1ccc(F)c(C(=O)c2ccc3ncc(N4CCNCC4)nc3c2)c1 | 70 to 89%

Next item in the queue.
Task: Item: O=C(Nc1cccc(F)c1)Nc1cccc(C(=O)c2ccc3nccnc3c2)c1 Test system: KDR (VEGFR2) (Homo sapiens (Human)) Read-out: inhibition at 1 µM Value: ?
Result: < 70%
